measured_on: T1, 4H3057-bN
T1 chain: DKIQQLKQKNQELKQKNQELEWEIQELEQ
experiment_notes: two-hybrid library CCNG1;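 note: natural log of median RNA to DNA barcode read ratio; higher means stronger binding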
readout_kind: interaction score

> print(dat)
                                     binder  quantitative.readout
1  DKIQQLKQKNQELKQKNQELEWEIQELEQ [4H3057-bN]                 -1.22
2  DKIQQLKQKIQELEQENQELEWKNQELEQ [4H2839-bN]                -0.124
3  DKIQQLKQENQELEQEIQELEWENQELKQ [4H2692-bN]                 0.294

(A) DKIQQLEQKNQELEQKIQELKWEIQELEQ [4H2473-bN]
(B) DKIQQLEQEIQELKQENQELEWKIQELKQ [4H2134-bN]
(C) DKIQQLKQENQELEQENQELKWKIQELEQ [4H2717-bN]
(D) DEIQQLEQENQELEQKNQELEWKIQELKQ [4H182-bN]
Prompt: Thanks in advance: please rank these 4 entries by interaction score, highest to lowest. Put the labels in the requested order and list them out.
Response: D, B, A, C
